Target or system Vitamin D3 receptor (Homo sapiens, UniProt P11473): recorded pIC50 listed per item.
Give bare numbers, as −log10 of the molar value.

1) C=C1[C@H](O)CC(=C/C=C2\CCC[C@]3(C)[C@@H]([C@H](C)[C@@H](CCO)CCCC)CC[C@@H]23)C[C@H]1O 9.59

// next item, pIC50 requested
Ask: Give me measured pIC50, please, for this compound: C=C1[C@H](O)CC(=C/C=C2\CCC[C@]3(C)[C@@H]([C@H](C)[C@H](CC)CC(O)(CC)CC)CC[C@@H]23)C[C@H]1O
Result: 8.81
